- Test system: Plasmodium falciparum
- method: Antiprotozoal activity against chloroquine and pyrimethamine-resistant erythrocytic stage of Plasmodium falciparum K1 assessed as reduction in [3H]hypoxanthine incorporation preincubated for 48 hrs followed by [3H]hypoxanthine addition and measured after 24 hrs by liquid scintillation counting method
- Type: functional, organism-based
- measurement_setup: Plasmodium falciparum, K1
pIC50: −log10 of the molar value.

{"substance_smiles": "COc1c(-c2ccc(OC)c3c(OC)cc(C)cc23)c(O)cc2c1[C@@H](C)N[C@H](C)C2", "pIC50": 5.85}
{"substance_smiles": "COc1cc2c(c(O)c1-c1ccc(OC)c3c(OC)cc(C)cc13)[C@@H](C)N[C@H](C)C2", "pIC50": 5.09}
{"substance_smiles": "COc1cc(O)c(-c2cc(-c3cc(-c4c(O)cc5c(c4OC)[C@H](C)N[C@H](C)C5)c4cc(C)cc(OC)c4c3O)c(O)c3c(OC)cc(C)cc23)c2c1[C@H](C)N[C@H](C)C2", "pIC50": 8.20}
